These measurements were taken from patent US20240124469A1.

Listing of recorded AUC(0-t) by entry.
Test: Pharmacokinetic test
Type: in vivo
Conditions: female, mouse, plasma; BALB/c mice, oral administration, 50 mg/kg

OC12CCC(Nc3ccc4ncc(-c5ccc(C(F)(F)F)s5)n4n3)(CC1)CC2 [Compound 29] | 7650 ng·h/mL

input: Look up and state reported AUC(0-t) for OC[C@@H]1CC[C@@H](Nc2ccc3ncc(-c4ccc(C(F)(F)F)s4)n3n2)CO1 [Compound 46]
output: 11800 ng·h/mL

input: Look up and state reported AUC(0-t) for CC(C)(O)[C@H]1CC[C@H](Nc2ccc3ncc(-c4ccc(C(F)(F)F)s4)n3n2)CC1 [Compound 20]
output: 18100 ng·h/mL

input: Look up and state reported AUC(0-t) for CC(C)(O)[C@H]1CC[C@H](Nc2ccc3ncc(-c4cccc(C(F)(F)F)c4)n3n2)CC1 [TP-3654, reference compound]
output: 6800 ng·h/mL
